Below are pIC50 values measured for xanthine oxidase (derived from butter milk, by Sigma) (Bos taurus).
pIC50: −log10 of the molar value.

Below, each entry is followed by its recorded pIC50 result.
>>> value_measured("Cc1nc(-c2ccc(-c3ccc(OC(F)(F)F)cc3)c(C#N)c2)sc1C(=O)O")
"≥ 7.70"
>>> value_measured("N#Cc1cc(-c2cc(C(=O)O)ccn2)ccc1-n1ncc2ccccc21")
"≥ 7.70"
>>> value_measured("CC(C)CSc1ccc(-c2cc(C(=O)O)ccn2)cc1C#N")
8.60
>>> value_measured("N#Cc1cc(-c2ccc(C(=O)O)s2)cc(F)c1OC1CCCC1")
8.82
>>> value_measured("N#Cc1ccc(-c2ccc(-c3cc(C(=O)O)ccn3)cc2C#N)cc1")
"≥ 7.70"
>>> value_measured("Cc1nc(-c2ccc(-c3ccccc3)c(C#N)c2)sc1C(=O)O")
"≥ 7.70"

In: Provide measured pIC50 value, entry: N#Cc1cc(-c2cc(C(=O)O)ccn2)ccc1-c1ccco1
Out: ≥ 7.70

In: Provide measured pIC50 value, entry: CC(C)(C)c1ccc(-c2ccc(-c3cc(C(=O)O)ccn3)cc2C#N)cc1
Out: ≥ 7.70

In: Provide measured pIC50 value, entry: N#Cc1cc(-c2cc(C(=O)O)ccn2)ccc1-c1ccc(Oc2ccccc2)cc1
Out: ≥ 7.70

In: Provide measured pIC50 value, entry: Cc1cccc(-c2ccc(-c3nc(C)c(C(=O)O)s3)cc2C#N)c1
Out: ≥ 7.70
